System: Plasmodium falciparum NF54 gametocytes
Conditions: gametocyte stage: Stage II Dose Response IC50 (µM); assay protocol: SaLSSA, 384; incubation time: 72 h
Counter-ions that a name gives are not always drawn.

{"compound": "O[C@@H](c1cc(C(F)(F)F)nc2c(C(F)(F)F)cccc12)[C@H]1CCCCN1 [Mefloquine (+ RS)]", "unit text": "µM", "value operator": "=", "IC50 of gametocyte viability": 0.039}
{"compound": "CC(=O)N(O)CCCCCNC(=O)CCC(=O)N(O)CCCCCNC(=O)CCC(=O)N(O)CCCCCN [Deferoxamine mesylate salt]", "unit text": "µM", "value operator": ">", "IC50 of gametocyte viability": 12.5}
{"compound": "CCN(CC)CCCC(C)Nc1cc(OC)cc2cccnc12 (stereo not drawn) [Pamaquine (diethlyprimaquine)]", "unit text": "µM", "value operator": "=", "IC50 of gametocyte viability": 1.4}
{"compound": "CN(C(=O)c1cn2c(-c3ccc(C#N)cc3)cnc2cn1)c1ccc(C(F)(F)F)cc1 [KAI407]", "unit text": "µM", "value operator": "=", "IC50 of gametocyte viability": 0.636}
{"compound": "C=C[C@H]1CN2CC[C@@H]1C[C@H]2[C@H](O)c1ccnc2ccc(OC)cc12 [Quinine sulfate dihydrate (coeff. 2)]", "unit text": "µM", "value operator": "=", "IC50 of gametocyte viability": 0.496}
{"compound": "CC(=O)N[C@@H](C(=O)O)C(C)(C)S [N-acetyl-D-penicillamine]", "unit text": "µM", "value operator": ">", "IC50 of gametocyte viability": 12.5}
{"compound": "CCc1nc(N)nc(N)c1-c1ccc(Cl)cc1 [pyrimethamine]", "unit text": "µM", "value operator": ">", "IC50 of gametocyte viability": 12.5}
{"compound": "CN(C)[C@@H]1C(O)=C(C(N)=O)C(=O)[C@@]2(O)C(O)=C3C(=O)c4c(O)cccc4[C@@](C)(O)[C@H]3C[C@@H]12 [Tetracycline]", "unit text": "µM", "value operator": ">", "IC50 of gametocyte viability": 12.5}

---

Reported values of IC50 of gametocyte viability for individual entries
Test system: Plasmodium falciparum NF54 gametocytes
Conditions: gametocyte stage: Stage I Dose Response IC50 (µM); assay protocol: TSSA, 384; incubation time: 72 h
Structures can show the parent of a compound that is named as a salt.

{"molecule": "COc1cc(C)c2c(Oc3cccc(C(F)(F)F)c3)c(OC)cc(NC(C)CCCN)c2n1 (stereo not drawn)", "subject of test": "Plasmodium falciparum NF54 gametocytes", "value operator": "=", "IC50 of gametocyte viability (µM)": 5.3}
{"molecule": "CCN(CC)CCCC(C)Nc1ccnc2cc(Cl)ccc12 (stereo not drawn)", "subject of test": "Plasmodium falciparum NF54 gametocytes", "value operator": "=", "IC50 of gametocyte viability (µM)": 0.084}
{"molecule": "CCCCN(CCCC)CCC(O)c1cc2c(Cl)cc(Cl)cc2c2cc(C(F)(F)F)ccc12 (stereo not drawn)", "subject of test": "Plasmodium falciparum NF54 gametocytes", "value operator": "=", "IC50 of gametocyte viability (µM)": 0.00577}
{"molecule": "C[C@@H]1CC[C@H]2[C@@H](C)C(=O)O[C@@H]3O[C@@]4(C)CC[C@@H]1[C@]32OO4", "subject of test": "Plasmodium falciparum NF54 gametocytes", "value operator": "=", "IC50 of gametocyte viability (µM)": 0.027}
{"molecule": "O=C1C(O)=C([C@H]2CC[C@H](c3ccc(Cl)cc3)CC2)C(=O)c2ccccc21", "subject of test": "Plasmodium falciparum NF54 gametocytes", "value operator": ">", "IC50 of gametocyte viability (µM)": 12.5}
{"molecule": "CC(C)NC(=N)NC(=N)Nc1ccc(Cl)c(Cl)c1 [Chlorproguanil hydrochloride/1.11]", "subject of test": "Plasmodium falciparum NF54 gametocytes", "value operator": ">", "IC50 of gametocyte viability (µM)": 12.5}
{"molecule": "CO[C@H]1O[C@@H]2O[C@@]3(C)CC[C@H]4[C@H](C)CC[C@@H]([C@H]1C)[C@@]24OO3", "subject of test": "Plasmodium falciparum NF54 gametocytes", "value operator": "=", "IC50 of gametocyte viability (µM)": 0.0183}
{"molecule": "C[C@H]1c2cccc(O)c2C(O)=C2C(=O)[C@]3(O)C(O)=C(C(N)=O)C(=O)[C@@H](N(C)C)[C@@H]3[C@@H](O)[C@@H]21", "subject of test": "Plasmodium falciparum NF54 gametocytes", "value operator": ">", "IC50 of gametocyte viability (µM)": 12.5}
